Tested on: ATP;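 further: ATP exposure 15 min at 22 °C before imaging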
Test summary: switch fluorescence ratio, 500 uM ATP over buffer (Cy3 cluster intensity, sum of 5 cycles each) (fold (ratio)); higher = stronger signal-on switching upon ATP binding; sequences stand for … in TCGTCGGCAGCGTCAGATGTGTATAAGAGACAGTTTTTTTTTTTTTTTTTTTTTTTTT…TC
Measurement parameters: aptamer strand: ATP DNA aptamer (quencher-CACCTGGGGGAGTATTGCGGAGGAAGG + anchor), 100 nM annealed; ATP concentration: 500 uM
Assay endpoint: switch fluorescence ratio
Answer field: number only, no words.

### Prompt State recorded switch fluorescence ratio with ATP, entry `TAAGTAGGGT` , no comment.
### Response 1.01

### Prompt State recorded switch fluorescence ratio with ATP, entry `ACTTTATCTT` , no comment.
### Response 1.06

### Prompt State recorded switch fluorescence ratio with ATP, entry `TTACAGCCTG` , no comment.
### Response 1

### Prompt State recorded switch fluorescence ratio with ATP, entry `CATGCCAGTG` , no comment.
### Response 1.05

### Prompt State recorded switch fluorescence ratio with ATP, entry `TTTGGCACGC` , no comment.
### Response 1.11

### Prompt State recorded switch fluorescence ratio with ATP, entry `TCGGTTTGTT` , no comment.
### Response 1

### Prompt State recorded switch fluorescence ratio with ATP, entry `CCCGCGGTTA` , no comment.
### Response 1.23

### Prompt State recorded switch fluorescence ratio with ATP, entry `CATGAAACAT` , no comment.
### Response 1.06

### Prompt State recorded switch fluorescence ratio with ATP, entry `AGCCCTGGGG` , no comment.
### Response 1.02

### Prompt State recorded switch fluorescence ratio with ATP, entry `ATTCAGAAGA` , no comment.
### Response 1.07

* * *

Test system: ATP;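 further: ATP exposure 15 min at 22 °C before imaging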
Test summary: switch fluorescence ratio, 500 uM ATP over buffer (Cy3 cluster intensity, sum of 5 cycles each) (fold (ratio)); higher = stronger signal-on switching upon ATP binding; sequences stand for … in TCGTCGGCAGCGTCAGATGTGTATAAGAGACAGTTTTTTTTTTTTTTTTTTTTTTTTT…TC
Measurement parameters: aptamer strand: ATP DNA aptamer (quencher-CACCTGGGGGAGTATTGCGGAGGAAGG + anchor), 100 nM annealed; ATP concentration: 500 uM
Exercise: for every item that follows, state its recorded switch fluorescence ratio.
Answer field: number only, no words.

### Prompt In one line, give reported switch fluorescence ratio of the entry `ACAGGAAGGG` .
### Response 1

### Prompt In one line, give reported switch fluorescence ratio of the entry `TAAGCTGGCG` .
### Response 1.06

### Prompt In one line, give reported switch fluorescence ratio of the entry `GTTTTTGACA` .
### Response 0.989

### Prompt In one line, give reported switch fluorescence ratio of the entry `GTGTTTTATT` .
### Response 1.01

### Prompt In one line, give reported switch fluorescence ratio of the entry `AGTGTTATTG` .
### Response 0.976

### Prompt In one line, give reported switch fluorescence ratio of the entry `AGCCGGCTGC` .
### Response 1.03

### Prompt In one line, give reported switch fluorescence ratio of the entry `ATGTATCGGG` .
### Response 0.975

### Prompt In one line, give reported switch fluorescence ratio of the entry `GGGGAGTTCG` .
### Response 0.983

### Prompt In one line, give reported switch fluorescence ratio of the entry `TGGGTAGGGA` .
### Response 0.976

### Prompt In one line, give reported switch fluorescence ratio of the entry `AGGCGCAGTG` .
### Response 1.04

### Prompt In one line, give reported switch fluorescence ratio of the entry `GTCGGGAGTG` .
### Response 0.986

### Prompt In one line, give reported switch fluorescence ratio of the entry `TTGTCTGTTA` .
### Response 1

### Prompt In one line, give reported switch fluorescence ratio of the entry `ATACGGGTTT` .
### Response 1.02

### Prompt In one line, give reported switch fluorescence ratio of the entry `TTTTAGTATA` .
### Response 1.02

### Prompt In one line, give reported switch fluorescence ratio of the entry `CGGTTGGCCT` .
### Response 0.998

### Prompt In one line, give reported switch fluorescence ratio of the entry `TCGGAGGGGA` .
### Response 1

### Prompt In one line, give reported switch fluorescence ratio of the entry `TTTGTTTTGG` .
### Response 1.03

### Prompt In one line, give reported switch fluorescence ratio of the entry `GGGGGGACCT` .
### Response 1.06

### Prompt In one line, give reported switch fluorescence ratio of the entry `TAAGAAGTCC` .
### Response 0.977

### Prompt In one line, give reported switch fluorescence ratio of the entry `GAAATACAAC` .
### Response 1.04

### Prompt In one line, give reported switch fluorescence ratio of the entry `GCCTGAGCTG` .
### Response 1.02

### Prompt In one line, give reported switch fluorescence ratio of the entry `CTTGGTCTGA` .
### Response 0.994

### Prompt In one line, give reported switch fluorescence ratio of the entry `TGGGGGTAAT` .
### Response 0.992

### Prompt In one line, give reported switch fluorescence ratio of the entry `ATCCGGGATG` .
### Response 1.03

### Prompt In one line, give reported switch fluorescence ratio of the entry `TGTTGTTTGG` .
### Response 1

### Prompt In one line, give reported switch fluorescence ratio of the entry `AGTGGCCGCG` .
### Response 1.02

### Prompt In one line, give reported switch fluorescence ratio of the entry `TTAGGCCGGC` .
### Response 0.988

### Prompt In one line, give reported switch fluorescence ratio of the entry `CCCTTGTGTG` .
### Response 1.43

### Prompt In one line, give reported switch fluorescence ratio of the entry `TTTTAGGTTC` .
### Response 1.01

### Prompt In one line, give reported switch fluorescence ratio of the entry `GCTTTGGTGA` .
### Response 0.991

### Prompt In one line, give reported switch fluorescence ratio of the entry `GAAAAATTGG` .
### Response 1.03

### Prompt In one line, give reported switch fluorescence ratio of the entry `ATAATATTGT` .
### Response 0.999

* * *

System: ATP;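 further: ATP exposure 15 min at 22 °C before imaging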
Test summary: switch fluorescence ratio, 500 uM ATP over buffer (Cy3 cluster intensity, sum of 5 cycles each) (fold (ratio)); higher = stronger signal-on switching upon ATP binding; sequences stand for … in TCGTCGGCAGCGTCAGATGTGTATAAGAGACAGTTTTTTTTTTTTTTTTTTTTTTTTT…TC
Measurement parameters: aptamer strand: ATP DNA aptamer (quencher-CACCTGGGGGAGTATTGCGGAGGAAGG + anchor), 100 nM annealed; ATP concentration: 500 uM
Assay endpoint: switch fluorescence ratio
Answer field: number only, no words.

### Prompt In one line, give reported switch fluorescence ratio of the entry `TTGGAACGAT` .
### Response 1.02

### Prompt In one line, give reported switch fluorescence ratio of the entry `TATAATGCGC` .
### Response 0.995

### Prompt In one line, give reported switch fluorescence ratio of the entry `GCTTCAGGCC` .
### Response 1.02

### Prompt In one line, give reported switch fluorescence ratio of the entry `TTATGTGACG` .
### Response 0.994

### Prompt In one line, give reported switch fluorescence ratio of the entry `AGTAGAATGG` .
### Response 1

### Prompt In one line, give reported switch fluorescence ratio of the entry `AAGTAGTCTT` .
### Response 0.995

### Prompt In one line, give reported switch fluorescence ratio of the entry `ATGCAACCAT` .
### Response 1.01

### Prompt In one line, give reported switch fluorescence ratio of the entry `GGTCTAGAAA` .
### Response 1.21

### Prompt In one line, give reported switch fluorescence ratio of the entry `CGCCTCAGGT` .
### Response 1.46

### Prompt In one line, give reported switch fluorescence ratio of the entry `TAGGTGGGCT` .
### Response 1.01

### Prompt In one line, give reported switch fluorescence ratio of the entry `ACTTAATGTA` .
### Response 1

### Prompt In one line, give reported switch fluorescence ratio of the entry `AGGTTCATCT` .
### Response 1.01

### Prompt In one line, give reported switch fluorescence ratio of the entry `TGCTCTTTCA` .
### Response 1

### Prompt In one line, give reported switch fluorescence ratio of the entry `AGATGGGGGG` .
### Response 1.02

### Prompt In one line, give reported switch fluorescence ratio of the entry `TTGGCGGGGC` .
### Response 1.02

### Prompt In one line, give reported switch fluorescence ratio of the entry `CTTTTGGGAC` .
### Response 0.987

### Prompt In one line, give reported switch fluorescence ratio of the entry `TTGTGAACCG` .
### Response 0.973

### Prompt In one line, give reported switch fluorescence ratio of the entry `GTGGTGTATC` .
### Response 1.02

### Prompt In one line, give reported switch fluorescence ratio of the entry `ACGGATGGGG` .
### Response 0.997

### Prompt In one line, give reported switch fluorescence ratio of the entry `GCTTAAGTTA` .
### Response 1

### Prompt In one line, give reported switch fluorescence ratio of the entry `ATCGGACGCG` .
### Response 0.987

### Prompt In one line, give reported switch fluorescence ratio of the entry `AACGGACGGG` .
### Response 1.27

### Prompt In one line, give reported switch fluorescence ratio of the entry `GAATAGGGGC` .
### Response 0.965

### Prompt In one line, give reported switch fluorescence ratio of the entry `GAGAGGGAAG` .
### Response 1

### Prompt In one line, give reported switch fluorescence ratio of the entry `CTAGTTCTTA` .
### Response 1.05

### Prompt In one line, give reported switch fluorescence ratio of the entry `TCTATTAGTA` .
### Response 0.932

### Prompt In one line, give reported switch fluorescence ratio of the entry `TTACCCTGGG` .
### Response 1.07

### Prompt In one line, give reported switch fluorescence ratio of the entry `GGAATGGGGA` .
### Response 1

### Prompt In one line, give reported switch fluorescence ratio of the entry `TTCATCGGCA` .
### Response 1.35

### Prompt In one line, give reported switch fluorescence ratio of the entry `GAGATTGCAG` .
### Response 0.974

### Prompt In one line, give reported switch fluorescence ratio of the entry `CTAGGGAGGT` .
### Response 0.97

### Prompt In one line, give reported switch fluorescence ratio of the entry `TCGGATTAAT` .
### Response 1.05

### Prompt In one line, give reported switch fluorescence ratio of the entry `TATGAAACCG` .
### Response 1.02

### Prompt In one line, give reported switch fluorescence ratio of the entry `TAATCGTGTG` .
### Response 0.985

### Prompt In one line, give reported switch fluorescence ratio of the entry `ATAGGGTTTC` .
### Response 0.99

### Prompt In one line, give reported switch fluorescence ratio of the entry `GGTTTTTTTG` .
### Response 1.02

### Prompt In one line, give reported switch fluorescence ratio of the entry `TATGCATTGT` .
### Response 1.01
